Kd values for the binders below.
Target: T1, human TGFβ3, mature dimeric form (human, UniProt P10600 301-412)
T1 construct: Peprotech, expressed in E. coli; also called TGFb3
T1 sequence: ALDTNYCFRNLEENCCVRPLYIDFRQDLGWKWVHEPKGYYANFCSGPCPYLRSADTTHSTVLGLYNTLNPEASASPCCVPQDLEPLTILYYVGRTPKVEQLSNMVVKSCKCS
Experiment: BIAcore T200
Experimental: For binding affinity determinations of all humanized 2A10 antibodies, Surface Plasmon Resonance (SPR) measurement with a BIAcore™-T200 instrument was used. […] Association rates (ko.) and dissociation rates (koff) were calculated using a simple one-to-one Langmuir binding model (BIAcore T200 evaluation software version 2.0) to determine the equilibrium dissociation constant (KD), which was calculated as the ratio koff/kₒₙ.
Just the number please, in pM, no unit attached.

h2A10.v2.7 (antibody, human IgG1, kappa, N297G, V domains shown) VH: EVQLLESGGGLVQPGGSLRLSCAASGFDFNSYGMSWVRQAPGKGLELVADIVSKTYNYTTYYSDSVKDRFTISRDNSKSTVYLQMNSLRAEDTAVYYCTVAPGGSFDYWGQGTLVTVSS VL: DIQLTQSPSSLSASVGDRVTITCRASQSVSISRFNLMHWYQHKPGKQPKLLIYRASNLASGIPSRFSGSGSGTDFTLTISSLQPEDFATYYCQHSRESPWTFGGGTKVEIKR
3.2

Query: Could you share which Kd value was measured for h2A10.v2.3 (antibody, human IgG1, kappa, N297G, V domains shown) VH: EVQLLESGGGLVQPGGSLRLSCAASGFDFNSYGMSWVRQAPGKGLELVADIVSKTYNYTTYYSDSVKDRFTISRDDSKSTVYLQMNSLRAEDTAVYYCTVAPGGSFDYWGQGTLVTVSS VL: DIQLTQSPSSLSASVGDRVTITCRASQSVSISRFNLMHWYQHKPGKAPKLLIYRASNLASGIPSRFSGSGSGTDFTLTISSLQPEDFATYYCQHSRESPWTFGGGTKVEIKR ?
Reply: 1.5

Query: Another binder to look at: h2A10.v2.8 (antibody, human IgG1, kappa, N297G, V domains shown) VH: EVQLLESGGGLVQPGGSLRLSCAASGFDFNSYGMSWVRQAPGKGLELVADIVSKTYNYTTYYSDSVKDRFTISRDDSKNTVYLQMNSLRAEDTAVYYCTVAPGGSFDYWGQGTLVTVSS VL: DIQLTQSPSSLSASVGDRVTITCRASQSVSISRFNLMHWYQHKPGKQPKLLIYRASNLASGIPSRFSGSGSGTDFTLTISSLQPEDFATYYCQHSRESPWTFGGGTKVEIKR
Reply: 1.2

Query: Do the same for h2A10.v2.6 (antibody, human IgG1, kappa, N297G, V domains shown) VH: EVQLLESGGGLVQPGGSLRLSCAASGFDFNSYGMSWVRQAPGKGLELVSDIVSKTYNYTTYYSDSVKDRFTISRDDSKSTVYLQMNSLRAEDTAVYYCTVAPGGSFDYWGQGTLVTVSS VL: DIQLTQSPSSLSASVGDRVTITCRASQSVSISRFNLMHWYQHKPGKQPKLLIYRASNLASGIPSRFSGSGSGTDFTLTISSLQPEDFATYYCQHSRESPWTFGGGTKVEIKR please
Reply: 1.5

Query: Query h2A10.v2.5 (antibody, human IgG1, kappa, N297G, V domains shown) VH: EVQLLESGGGLVQPGGSLRLSCAASGFDFNSYGMSWVRQAPGKGLEWVADIVSKTYNYTTYYSDSVKDRFTISRDDSKSTVYLQMNSLRAEDTAVYYCTVAPGGSFDYWGQGTLVTVSS VL: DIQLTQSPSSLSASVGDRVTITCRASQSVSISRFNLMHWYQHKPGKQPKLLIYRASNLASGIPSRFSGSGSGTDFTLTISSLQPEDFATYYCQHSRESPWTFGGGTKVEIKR next
Reply: 500

From: patent US20210301005A1
